Molecular target: Recombinant human cathepsin A (Homo sapiens, UniProt P10619)
Construct: Recombinant human cathepsin A (residues 29-480, with a C-terminal 10-His tag); 10-His (C); purchased R&D Systems 1049-SE
Sequence (P10619 29-312 limits assumed): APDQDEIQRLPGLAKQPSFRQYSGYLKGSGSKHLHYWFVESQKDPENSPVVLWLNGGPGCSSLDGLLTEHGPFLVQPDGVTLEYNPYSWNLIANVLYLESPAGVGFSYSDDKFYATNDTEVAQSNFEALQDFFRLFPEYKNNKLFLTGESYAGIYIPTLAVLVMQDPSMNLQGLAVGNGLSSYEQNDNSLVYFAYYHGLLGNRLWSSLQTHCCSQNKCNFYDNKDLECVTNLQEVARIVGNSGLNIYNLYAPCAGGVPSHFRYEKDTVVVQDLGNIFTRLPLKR
Sequence (P10619 327-480 limits assumed): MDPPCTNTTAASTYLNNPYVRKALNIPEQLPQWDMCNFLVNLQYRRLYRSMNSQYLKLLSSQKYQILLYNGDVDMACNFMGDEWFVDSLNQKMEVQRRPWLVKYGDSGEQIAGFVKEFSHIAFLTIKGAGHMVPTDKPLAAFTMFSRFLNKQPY
Assay: Cathepsin A inhibitory activity
Format: biochemical
Conditions: read-out: Activity (2): Cathepsin A inhibitory activity (IC50 class)
pIC50: −log10 of the molar value.
observed property: pIC50

# compound, pIC50
records = [
    ("O=C(O)C[C@H](NC(=O)c1cc(OCC2CC2)n(-c2ccccc2F)n1)c1ccccc1", "> 7.00"),
    ("Cc1nc(COc2cc(C(=O)N[C@@H](CC(=O)O)c3ccccc3C)nn2-c2ccccc2F)cs1", "> 7.00"),
    ("Cc1ccccc1[C@H](CC(=O)O)NC(=O)c1cc(OCc2ccncc2)n(-c2ccccc2F)n1", "> 7.00"),
    ("CC(C)C(C)(O)COc1cc(C(=O)N[C@@H](CC(=O)O)c2ccccc2Cl)nn1-c1ccccc1F (stereo partly drawn)", "> 7.00"),
    ("Cc1cccc([C@H](CC(=O)O)NC(=O)c2cc(OC[C@@H](O)C(C)(C)C)n(-c3ccccc3F)n2)c1", "> 7.00"),
]

Summary for this compound, `Cc1ccccc1[C@H](CC(=O)O)NC(=O)c1cc(OCc2cccc(C(F)(F)F)c2)n(-c2ccccc2F)n1` : pIC50 is 6.00 to 7.00

Summary for this compound, `CCOc1cc(C(=O)N[C@@H](CC(=O)O)c2ccc(C)cc2)nn1-c1ccccc1F` : pIC50 is > 7.00

Values compiled from patent US8664257B2.
